Tested on: MRSA COL (NRS100)
Test: MIC, broth micro-dilution technique (CLSI)
Format: cell-based, Staphylococcus aureus
Conditions: Staphylococcus aureus, 22 h, read-out: MIC (μg/mL) (COL)
RECORDED ENDPOINT: MIC (µg/mL)
Number only, in µg/mL; omit the unit.

I'm curious: which MIC was measured for `C[C@@H]1NC(=O)[C@@H](N(C)C(=O)[C@H](CCCCN)NC(=O)Cc2ccc(-c3ccc(Cl)cc3)cc2)c2ccc(OCCN)c(c2)-c2cc(ccc2OCCN)C[C@@H](C(=O)O)NC1=O` tested on MRSA COL (NRS100)?
1.5

# returns recorded MIC (system: MRSA COL (NRS100)) for `CCCCCCCCCCCCCC(=O)N[C@@H](CCN)C(=O)N(C)[C@@H]1C(=O)N[C@@H](C)C(=O)N[C@H](C(=O)O)Cc2ccc(OCCN)c(c2)-c2cc1ccc2OCCN`
0.031

What measured MIC is associated with `C[C@@H]1NC(=O)[C@@H](N(C)C(=O)[C@H](CCCCN)NC(=O)c2ccc(-c3ccc(Cl)cc3)cc2)c2ccc(O)c(c2)-c2cc(ccc2O)C[C@@H](C(=O)N[C@@H](C)/C=C/S(N)(=O)=O)NC1=O` on MRSA COL (NRS100)?
16

Requested read-out MIC, target or system MRSA COL (NRS100), entry `C[C@@H]1NC(=O)[C@@H](N(C)C(=O)[C@H](CCCCN)NC(=O)c2ccc(-c3ccc(-c4ccccc4)cc3)cc2)c2ccc(OCCN)c(c2)-c2cc(ccc2OCCN)C[C@@H](C(=O)O)NC1=O`
0.094

# value lookup — system MRSA COL (NRS100), readout MIC, item `CCCCc1ccc(-c2ccc(C(=O)N[C@@H](CCCN)C(=O)N(C)[C@@H]3C(=O)N[C@@H](C)C(=O)N[C@H](C(=O)NS(C)(=O)=O)Cc4ccc(OCCN)c(c4)-c4cc3ccc4OCCN)cc2)cc1`
0.75

# returns recorded MIC (system: MRSA COL (NRS100)) for `C[C@H](NCC(=O)[C@H](C)NC(=O)[C@@H]1Cc2ccc(O)c(c2)-c2cc(ccc2O)[C@H](N(C)C(=O)[C@H](CCCCN)NC(=O)c2ccc(-c3ccc(Cl)cc3)cc2)C(=O)N[C@@H](C)C(=O)N1)C(N)=O`
8

Reported MIC for MRSA COL (NRS100), given `CCCCc1ccc(-c2ccc(C(=O)N[C@@H](CCCN)C(=O)N(C)[C@@H]3C(=O)N[C@@H](C)C(=O)N[C@H](CO)Cc4ccc(OCCN)c(c4)-c4cc3ccc4OCCN)cc2)cc1` ?
0.13

Item: `CCCCCCCCc1ccc(C(=O)N[C@@H](CCN)C(=O)N(C)[C@@H]2C(=O)N[C@@H](C)C(=O)N[C@H](C(=O)O)Cc3ccc(OCCN)c(c3)-c3cc2ccc3OCCN)c(C)c1` Test system: MRSA COL (NRS100) Read-out: MIC Value: ?
0.039

Can you look up MIC on MRSA COL (NRS100) for `CC(=O)[C@H](C)NC(=O)[C@@H]1Cc2ccc(O)c(c2)-c2cc(ccc2OCCO)[C@H](N(C)C(=O)[C@H](CCCCN)NC(=O)c2ccc(-c3ccc(Cl)cc3)cc2)C(=O)N[C@@H](C)C(=O)N1` ?
3
